- Tested on: UACC-257 melanoma
- assay remarks: NCI-60 one-dose screen, 48 h
- experimental parameters: 10 µM unless noted
Compounds without any hit were thinned out: in the full panel of roughly 83,000, 20% have a hit. Active and inactive are the calls of the source. The calls were made as follows: active = growth percent below 10; inactive = the rest.
One label from this list, please: Yes (active), No (inactive)

O=C(Nc1ccc(-n2ccc3c(NC(=O)c4ccccc4)ncnc32)cc1)Nc1ccc(Cl)c(C(F)(F)F)c1 : Yes

Asked: Can you look up the reported call for `COc1cc(-c2nc3ccccc3s2)ccc1OCc1nc2n(n1)S(=O)(=O)c1ccccc1N2C` for me?
Given back: No

Asked: Can you look up the reported call for `CCCOC(=O)c1ccc([N+](=O)[O-])o1` for me?
Given back: No

Asked: Can you look up the reported call for `Cc1ccc(-c2nc3c(N=Nc4ccc(S(N)(=O)=O)cc4)c(N)nn3c(N)c2C#N)cc1` for me?
Given back: No

Asked: Can you look up the reported call for `COc1cc(/C=C/C(=O)c2c(C)n([O-])c3cc(C)c(C)cc3[n+]2=O)cc(OC)c1OC` for me?
Given back: No
